conditions: 80 K; 101.33 kPa; Crystal; relaxation calorimetry
molar entropy under 40 J/K/mol gets Satisfied, anything at or over 40 J/K/mol gets Not satisfied.

{"compound": "OC[C@@H](O)[C@@H](O)[C@H](O)[C@H](O)CO", "group-label": "Not satisfied"}
{"compound": "OC[C@@H](O)C(O)[C@H](O)CO", "group-label": "Not satisfied"}
{"compound": "OC[C@@H](O)[C@@H](O)CO", "group-label": "Satisfied"}
{"compound": "OC[C@H](O)C(O)[C@@H](O)CO [L-(-)-arabitol]", "group-label": "Not satisfied"}

###

experiment: molar heat capacity at constant pressure; details: 191.15 K; 101.33 kPa; Crystal; Small sample (50 mg) DSC
measured-quantity: molar heat capacity at constant pressure (J/K/mol)

{"molecule": "OC[C@@H](O)C(O)[C@H](O)CO [D-arabitol]", "measured-quantity": "molar heat capacity at constant pressure", "number": 125.58}
{"molecule": "OC[C@@H](O)[C@@H](O)[C@H](O)[C@H](O)CO [D-mannitol]", "measured-quantity": "molar heat capacity at constant pressure", "number": 146.73}
{"molecule": "O[C@H]1[C@H](O)[C@@H](O)[C@H](O)[C@@H](O)[C@H]1O [cis-1,2,3,5-trans-4,6-cyclohexanehexol]", "measured-quantity": "molar heat capacity at constant pressure", "number": 134.87}
{"molecule": "OC[C@H](O)C(O)[C@@H](O)CO [L-(-)-arabitol]", "measured-quantity": "molar heat capacity at constant pressure", "number": 132.97}
{"molecule": "OC[C@@H](O)[C@@H](O)CO [meso-1,2,3,4-butanetetrol]", "measured-quantity": "molar heat capacity at constant pressure", "number": 107.06}
{"molecule": "OC[C@@H](O)[C@H](O)[C@@H](O)CO [xylitol]", "measured-quantity": "molar heat capacity at constant pressure", "number": 132.22}

###

molar heat capacity at constant pressure values by entry
assay: molar heat capacity at constant pressure; details: 325.15 K; 101.33 kPa; Crystal; Small sample (50 mg) DSC
± gives the expanded uncertainty stated by the source.
measured-quantity: molar heat capacity at constant pressure

{"compound": "OC[C@@H](O)C(O)[C@H](O)CO [D-arabitol]", "result": "224.24 ± 18 J/K/mol"}
{"compound": "OC[C@@H](O)[C@H](O)[C@@H](O)CO [xylitol]", "result": "232.32 ± 14 J/K/mol"}
{"compound": "OC[C@@H](O)[C@@H](O)[C@H](O)[C@H](O)CO [D-mannitol]", "result": "254.69 ± 41 J/K/mol"}
{"compound": "OC[C@H](O)C(O)[C@@H](O)CO [L-(-)-arabitol]", "result": "232.46 ± 47 J/K/mol"}
{"compound": "OC[C@@H](O)[C@@H](O)CO [meso-1,2,3,4-butanetetrol]", "result": "181.48 ± 22 J/K/mol"}
{"compound": "O[C@H]1[C@H](O)[C@@H](O)[C@H](O)[C@@H](O)[C@H]1O [cis-1,2,3,5-trans-4,6-cyclohexanehexol]", "result": "242.06 ± 34 J/K/mol"}

###

test: molar heat capacity at constant pressure; conditions: 204.15 K; 101.33 kPa; Crystal; Small sample (50 mg) DSC

{"compound": "OC[C@@H](O)C(O)[C@H](O)CO", "molar heat capacity at constant pressure / J/K/mol": 137.97}
{"compound": "OC[C@@H](O)[C@@H](O)CO", "molar heat capacity at constant pressure / J/K/mol": 115.4}
{"compound": "OC[C@H](O)C(O)[C@@H](O)CO [L-(-)-arabitol]", "molar heat capacity at constant pressure / J/K/mol": 142.39}
{"compound": "OC[C@@H](O)[C@@H](O)[C@H](O)[C@H](O)CO", "molar heat capacity at constant pressure / J/K/mol": 159.96}
{"compound": "O[C@H]1[C@H](O)[C@@H](O)[C@H](O)[C@@H](O)[C@H]1O [cis-1,2,3,5-trans-4,6-cyclohexanehexol]", "molar heat capacity at constant pressure / J/K/mol": 146.25}
{"compound": "OC[C@@H](O)[C@H](O)[C@@H](O)CO", "molar heat capacity at constant pressure / J/K/mol": 143.76}

###

assay: molar heat capacity at constant pressure; settings: 415.15 K; 101.33 kPa; Liquid; Small sample (50 mg) DSC
molar heat capacity at constant pressure values by entry

{"compound": "OC[C@@H](O)[C@H](O)[C@@H](O)CO", "molar heat capacity at constant pressure (J/K/mol)": 443.82}
{"compound": "OC[C@@H](O)C(O)[C@H](O)CO", "molar heat capacity at constant pressure (J/K/mol)": 452.79}
{"compound": "OC[C@@H](O)[C@@H](O)CO", "molar heat capacity at constant pressure (J/K/mol)": 354.76}
{"compound": "OC[C@H](O)C(O)[C@@H](O)CO [L-(-)-arabitol]", "molar heat capacity at constant pressure (J/K/mol)": 451.25}

###

molar heat capacity at constant pressure values by entry
assay: molar heat capacity at constant pressure; settings: 306.15 K; 101.33 kPa; Crystal; Small sample (50 mg) DSC

{"compound": "OC[C@@H](O)C(O)[C@H](O)CO", "reading-unit": "J/K/mol", "molar heat capacity at constant pressure": 207.29}
{"compound": "OC[C@@H](O)[C@@H](O)[C@H](O)[C@H](O)CO", "reading-unit": "J/K/mol", "molar heat capacity at constant pressure": 237.06}
{"compound": "O[C@H]1[C@H](O)[C@@H](O)[C@H](O)[C@@H](O)[C@H]1O [cis-1,2,3,5-trans-4,6-cyclohexanehexol]", "reading-unit": "J/K/mol", "molar heat capacity at constant pressure": 224.53}
{"compound": "OC[C@H](O)C(O)[C@@H](O)CO [L-(-)-arabitol]", "reading-unit": "J/K/mol", "molar heat capacity at constant pressure": 213.15}
{"compound": "OC[C@@H](O)[C@@H](O)CO", "reading-unit": "J/K/mol", "molar heat capacity at constant pressure": 169.71}
{"compound": "OC[C@@H](O)[C@H](O)[C@@H](O)CO", "reading-unit": "J/K/mol", "molar heat capacity at constant pressure": 216.14}

###

molar entropy values by entry
conditions: 180 K; 101.33 kPa; Crystal; relaxation calorimetry

{"compound": "OC[C@H](O)C(O)[C@@H](O)CO [L-(-)-arabitol]", "reading-unit": "J/K/mol", "molar entropy": 119.24}
{"compound": "OC[C@@H](O)C(O)[C@H](O)CO [D-arabitol]", "reading-unit": "J/K/mol", "molar entropy": 118.28}
{"compound": "OC[C@@H](O)[C@@H](O)CO [meso-1,2,3,4-butanetetrol]", "reading-unit": "J/K/mol", "molar entropy": 98.61}
{"compound": "OC[C@@H](O)[C@H](O)[C@@H](O)CO [xylitol]", "reading-unit": "J/K/mol", "molar entropy": 115.21}
{"compound": "OC[C@@H](O)[C@@H](O)[C@H](O)[C@H](O)CO [D-mannitol]", "reading-unit": "J/K/mol", "molar entropy": 134.02}
{"compound": "O[C@H]1[C@H](O)[C@@H](O)[C@H](O)[C@@H](O)[C@H]1O [cis-1,2,3,5-trans-4,6-cyclohexanehexol]", "reading-unit": "J/K/mol", "molar entropy": 112.03}

###

experiment: molar heat capacity at constant pressure; conditions: 130 K; 101.33 kPa; Crystal; relaxation calorimetry

{"molecule": "OC[C@@H](O)[C@@H](O)[C@H](O)[C@H](O)CO", "molar heat capacity at constant pressure (J/K/mol)": 110.93}
{"molecule": "OC[C@@H](O)[C@@H](O)CO", "molar heat capacity at constant pressure (J/K/mol)": 80.03}
{"molecule": "OC[C@H](O)C(O)[C@@H](O)CO [L-(-)-arabitol]", "molar heat capacity at constant pressure (J/K/mol)": 99.22}
{"molecule": "OC[C@@H](O)C(O)[C@H](O)CO", "molar heat capacity at constant pressure (J/K/mol)": 98.42}
{"molecule": "OC[C@@H](O)[C@H](O)[C@@H](O)CO", "molar heat capacity at constant pressure (J/K/mol)": 98.03}
{"molecule": "O[C@H]1[C@H](O)[C@@H](O)[C@H](O)[C@@H](O)[C@H]1O [cis-1,2,3,5-trans-4,6-cyclohexanehexol]", "molar heat capacity at constant pressure (J/K/mol)": 94.69}

###

molar heat capacity at constant pressure values by entry
test: molar heat capacity at constant pressure; conditions: 242.15 K; 101.33 kPa; Crystal; Small sample (50 mg) DSC

{"compound": "OC[C@@H](O)[C@@H](O)[C@H](O)[C@H](O)CO", "molar heat capacity at constant pressure, J/K/mol": 188.69}
{"compound": "O[C@H]1[C@H](O)[C@@H](O)[C@H](O)[C@@H](O)[C@H]1O [cis-1,2,3,5-trans-4,6-cyclohexanehexol]", "molar heat capacity at constant pressure, J/K/mol": 175.4}
{"compound": "OC[C@@H](O)[C@H](O)[C@@H](O)CO", "molar heat capacity at constant pressure, J/K/mol": 169.52}
{"compound": "OC[C@@H](O)C(O)[C@H](O)CO", "molar heat capacity at constant pressure, J/K/mol": 162.77}
{"compound": "OC[C@H](O)C(O)[C@@H](O)CO [L-(-)-arabitol]", "molar heat capacity at constant pressure, J/K/mol": 167.44}
{"compound": "OC[C@@H](O)[C@@H](O)CO", "molar heat capacity at constant pressure, J/K/mol": 135}
